Target: CaV2.2 (Homo sapiens, UniProt Q00975)
Construct: expressed in transfected cells; host or cells: HEK293
Sequence (Q00975 whole entry): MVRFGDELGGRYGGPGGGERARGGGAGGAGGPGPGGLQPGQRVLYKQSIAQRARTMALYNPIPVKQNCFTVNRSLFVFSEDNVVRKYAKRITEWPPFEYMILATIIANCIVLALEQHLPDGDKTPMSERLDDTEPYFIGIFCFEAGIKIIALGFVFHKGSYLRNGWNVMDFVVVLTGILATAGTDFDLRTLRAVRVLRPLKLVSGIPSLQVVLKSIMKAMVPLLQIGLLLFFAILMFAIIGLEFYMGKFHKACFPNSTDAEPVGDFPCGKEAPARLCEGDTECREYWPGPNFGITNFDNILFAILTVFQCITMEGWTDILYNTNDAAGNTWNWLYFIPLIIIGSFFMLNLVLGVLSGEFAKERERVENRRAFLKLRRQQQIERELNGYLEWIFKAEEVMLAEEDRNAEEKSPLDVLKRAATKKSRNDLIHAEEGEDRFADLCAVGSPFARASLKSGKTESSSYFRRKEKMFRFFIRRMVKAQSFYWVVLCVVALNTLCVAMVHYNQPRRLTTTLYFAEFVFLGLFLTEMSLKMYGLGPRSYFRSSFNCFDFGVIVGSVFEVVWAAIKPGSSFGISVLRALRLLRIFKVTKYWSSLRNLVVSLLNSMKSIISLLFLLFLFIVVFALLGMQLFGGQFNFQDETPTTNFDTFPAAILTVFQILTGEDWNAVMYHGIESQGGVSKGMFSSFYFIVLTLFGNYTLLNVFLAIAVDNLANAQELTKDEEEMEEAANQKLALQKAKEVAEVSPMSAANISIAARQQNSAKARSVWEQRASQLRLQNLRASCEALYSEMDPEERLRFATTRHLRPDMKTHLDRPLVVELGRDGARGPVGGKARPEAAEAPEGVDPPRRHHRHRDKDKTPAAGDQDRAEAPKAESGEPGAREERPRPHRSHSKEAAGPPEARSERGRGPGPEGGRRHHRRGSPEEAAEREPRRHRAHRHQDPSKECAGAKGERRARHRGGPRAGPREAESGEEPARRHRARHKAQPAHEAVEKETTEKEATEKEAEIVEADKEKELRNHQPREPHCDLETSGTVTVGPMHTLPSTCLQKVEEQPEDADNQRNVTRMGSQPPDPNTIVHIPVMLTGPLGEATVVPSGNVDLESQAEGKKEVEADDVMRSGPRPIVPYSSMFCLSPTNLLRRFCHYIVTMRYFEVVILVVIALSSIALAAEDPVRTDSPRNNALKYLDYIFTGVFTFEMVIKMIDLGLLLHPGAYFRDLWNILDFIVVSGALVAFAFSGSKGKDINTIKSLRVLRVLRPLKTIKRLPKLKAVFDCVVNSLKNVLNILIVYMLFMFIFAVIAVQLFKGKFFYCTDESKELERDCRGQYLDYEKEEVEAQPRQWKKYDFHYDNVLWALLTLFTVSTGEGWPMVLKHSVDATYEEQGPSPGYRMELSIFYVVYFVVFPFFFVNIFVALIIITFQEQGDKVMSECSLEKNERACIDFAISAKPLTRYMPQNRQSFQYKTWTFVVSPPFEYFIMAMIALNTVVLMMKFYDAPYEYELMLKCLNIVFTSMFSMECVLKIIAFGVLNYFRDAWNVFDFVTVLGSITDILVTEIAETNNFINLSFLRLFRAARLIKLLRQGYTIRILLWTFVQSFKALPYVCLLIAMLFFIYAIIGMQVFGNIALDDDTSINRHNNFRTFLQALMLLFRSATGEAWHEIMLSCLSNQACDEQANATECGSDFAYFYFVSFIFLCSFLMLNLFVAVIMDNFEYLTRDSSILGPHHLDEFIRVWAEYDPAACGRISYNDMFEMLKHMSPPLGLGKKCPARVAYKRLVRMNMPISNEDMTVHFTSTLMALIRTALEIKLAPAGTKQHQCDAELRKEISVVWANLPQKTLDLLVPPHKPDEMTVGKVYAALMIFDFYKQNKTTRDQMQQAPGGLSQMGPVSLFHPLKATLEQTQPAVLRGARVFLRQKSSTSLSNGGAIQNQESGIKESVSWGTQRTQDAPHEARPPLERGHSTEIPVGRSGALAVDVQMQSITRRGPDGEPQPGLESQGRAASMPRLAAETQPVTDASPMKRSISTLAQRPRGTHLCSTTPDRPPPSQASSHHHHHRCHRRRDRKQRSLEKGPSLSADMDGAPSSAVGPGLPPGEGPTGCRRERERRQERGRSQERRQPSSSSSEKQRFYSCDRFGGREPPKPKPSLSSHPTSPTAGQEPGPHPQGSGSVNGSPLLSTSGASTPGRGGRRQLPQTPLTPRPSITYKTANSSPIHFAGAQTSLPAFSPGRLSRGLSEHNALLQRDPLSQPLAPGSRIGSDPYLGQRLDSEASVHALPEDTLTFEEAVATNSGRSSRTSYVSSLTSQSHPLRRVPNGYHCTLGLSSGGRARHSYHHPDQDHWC
Sequence (P54284 whole entry partner): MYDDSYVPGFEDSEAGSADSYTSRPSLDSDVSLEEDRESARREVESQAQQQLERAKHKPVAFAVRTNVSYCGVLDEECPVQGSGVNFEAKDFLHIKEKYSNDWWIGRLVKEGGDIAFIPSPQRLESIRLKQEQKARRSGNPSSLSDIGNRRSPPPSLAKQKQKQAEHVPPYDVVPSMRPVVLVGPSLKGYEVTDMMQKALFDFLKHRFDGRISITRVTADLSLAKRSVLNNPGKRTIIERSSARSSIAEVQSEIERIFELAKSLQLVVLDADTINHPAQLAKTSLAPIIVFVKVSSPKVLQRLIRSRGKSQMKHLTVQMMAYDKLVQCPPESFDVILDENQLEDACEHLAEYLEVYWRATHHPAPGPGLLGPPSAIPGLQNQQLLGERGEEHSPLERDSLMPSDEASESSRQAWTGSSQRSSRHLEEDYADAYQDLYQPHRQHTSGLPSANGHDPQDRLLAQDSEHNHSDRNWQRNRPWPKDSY
Sequence (P54289 25-946 partner limits assumed): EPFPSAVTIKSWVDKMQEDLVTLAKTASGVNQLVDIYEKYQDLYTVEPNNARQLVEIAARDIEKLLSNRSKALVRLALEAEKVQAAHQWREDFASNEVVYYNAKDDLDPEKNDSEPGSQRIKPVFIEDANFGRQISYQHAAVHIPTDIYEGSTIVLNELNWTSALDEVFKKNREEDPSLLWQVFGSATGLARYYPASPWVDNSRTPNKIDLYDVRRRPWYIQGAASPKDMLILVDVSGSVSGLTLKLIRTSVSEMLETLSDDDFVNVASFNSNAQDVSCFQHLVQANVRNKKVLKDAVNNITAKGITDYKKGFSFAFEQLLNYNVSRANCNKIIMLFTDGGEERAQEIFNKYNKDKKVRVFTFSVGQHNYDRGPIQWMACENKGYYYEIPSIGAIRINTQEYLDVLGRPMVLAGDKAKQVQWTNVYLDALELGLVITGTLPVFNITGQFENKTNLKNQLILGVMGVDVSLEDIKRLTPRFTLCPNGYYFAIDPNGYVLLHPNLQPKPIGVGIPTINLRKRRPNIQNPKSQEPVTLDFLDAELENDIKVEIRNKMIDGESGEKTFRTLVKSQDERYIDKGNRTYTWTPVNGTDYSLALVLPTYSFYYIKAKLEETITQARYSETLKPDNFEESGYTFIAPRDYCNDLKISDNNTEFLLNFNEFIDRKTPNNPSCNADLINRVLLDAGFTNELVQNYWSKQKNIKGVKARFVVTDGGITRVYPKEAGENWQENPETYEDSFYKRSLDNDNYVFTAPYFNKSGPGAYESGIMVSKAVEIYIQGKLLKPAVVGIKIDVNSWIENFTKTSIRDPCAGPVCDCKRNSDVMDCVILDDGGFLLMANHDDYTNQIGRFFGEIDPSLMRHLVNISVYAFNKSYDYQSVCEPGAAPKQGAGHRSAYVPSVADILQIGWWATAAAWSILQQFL
Sequence (P54289 947-1103 partner limits assumed): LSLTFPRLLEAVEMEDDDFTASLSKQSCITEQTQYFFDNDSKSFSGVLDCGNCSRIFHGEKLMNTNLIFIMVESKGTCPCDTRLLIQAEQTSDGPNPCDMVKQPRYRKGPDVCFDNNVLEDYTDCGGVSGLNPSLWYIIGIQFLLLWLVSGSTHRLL
Experiment: VIPR optical membrane potential assay with electrical stimulation
Assay type: cell-based
Conditions: Table 3, biological assay data; read-out: IC50
pIC50: −log10 of the molar value.
Quick reference for pIC50 among some compounds

compound: Cc1c(C(=O)N2CCCCC2)oc2ccc(S(=O)(=O)N3CCCC(C)C3)cc12 (centres unmarked)
measured result: > 5.30

compound: Cc1c(C(=O)NC2CCCCC2)oc2ccc(S(=O)(=O)N3CCC(C)CC3)cc12
measured result: 4.70 to 5.30

compound: CCN(CC)C(=O)c1oc2ccc(S(=O)(=O)N3CCCCCC3)cc2c1C
measured result: 4.70 to 5.30

compound: Cc1c(C(=O)N2CCCC(C)C2)oc2ccc(S(=O)(=O)N3CC(C)CC(C)C3)cc12 (centres unmarked)
measured result: > 5.30

compound: CNC(=O)c1[nH]c2ccc(S(=O)(=O)N3CCCCCC3)cc2c1C
measured result: 4.70 to 5.30

Record summary for O=C(c1cc2cc(S(=O)(=O)N3CCCCCC3)ccc2[nH]1)N1CCCCCC1 : reported pIC50 = 4.70 to 5.30

Consider CCNC(=O)c1[nH]c2ccc(S(=O)(=O)N3CC(C)CC(C)C3)cc2c1C (centres unmarked) . Its measured pIC50 is 4.70 to 5.30

Lab note: measured pIC50 of Cc1c(C(=O)NC2CCCCC2)oc2ccc(S(=O)(=O)N3CCOCC3)cc12 was > 4.70

###

Listing: pIC50 of selected compounds
Molecular target: CaV2.2 (Homo sapiens, UniProt Q00975)
Construct: expressed in transfected cells; host or cells: HEK293
Assay: VIPR optical membrane potential assay with electrical stimulation
Type: cell-based
Details: Table 3, biological assay data; read-out: IC50
pIC50: −log10 of the molar value.

Some compounds with recorded pIC50:
compound: Cc1c(C(=O)N2CCCCC2C)oc2ccc(S(=O)(=O)N3CC(C)CC(C)C3)cc12 (centres unmarked)
pIC50: > 5.30
--
compound: CN(Cc1ccccc1)C(=O)c1cc2cc(S(=O)(=O)N3CCCCCC3)ccc2o1
pIC50: > 5.30
--
compound: Cc1c(C(=O)N2CCCC2)[nH]c2ccc(S(=O)(=O)N3CC(C)CC(C)C3)cc12 (centres unmarked)
pIC50: > 5.30
--
compound: O=C(NCC1CCCO1)c1cc2cc(S(=O)(=O)N3CCCCCC3)ccc2o1 (centres unmarked)
pIC50: 4.70 to 5.30
--
compound: CCN(CC)C(=O)c1[nH]c2ccc(S(=O)(=O)N3CC(C)CC(C)C3)cc2c1C (centres unmarked)
pIC50: > 5.30
--
compound: COc1ccc(S(=O)(=O)n2c(C(=O)N3CCCCC3)cc3cc(S(=O)(=O)N4CC(C)CC(C)C4)ccc32)cc1 (centres unmarked)
pIC50: > 5.30
--
compound: Cc1c(C(=O)NC(C)C)oc2ccc(S(=O)(=O)N3CCCCCC3)cc12
pIC50: 4.70 to 5.30

Switching to the query record.
Data point: Cc1c(C(=O)N(C)Cc2ccccc2)oc2ccc(S(=O)(=O)N3CCCCCC3)cc12 ; pIC50 = > 5.30

###

pIC50 overview
Target: CaV2.2 (Homo sapiens, UniProt Q00975)
Construct: expressed in transfected cells; host or cells: HEK293
Assay: VIPR optical membrane potential assay with electrical stimulation
Assay type: cell-based
Conditions: Table 3, biological assay data; read-out: IC50
Description: Antagonist properties of test compounds were assessed as follows. Cells expressing the CaV of interest were placed into microtiter plates. […] The cells were stimulated with electrical means to evoke a CaV dependent membrane potential change from unblocked channels, which was detected and measured with trans-membrane potential-sensitive dyes. Antagonists were detected as a decreased membrane potential response to the stimulus. […] Allow solution to sit for 10 minutes. […] Run plate on the optical reader. […]
pIC50: −log10 of the molar value.

# count of solved cases: 5
compound: Cc1c(C(=O)NCCCc2ccccc2)oc2ccc(S(=O)(=O)N3CC(C)CC(C)C3)cc12 (centres unmarked)
measured result: > 5.30

compound: CC1CCCN(C(=O)c2cc3cc(S(=O)(=O)N4CCCCCC4)ccc3[nH]2)C1 (centres unmarked)
measured result: > 5.30

compound: CC1CCN(S(=O)(=O)c2ccc3cc(C(=O)N(C)C)[nH]c3c2)CC1
measured result: > 4.70

compound: CNC(=O)c1cc2cc(S(=O)(=O)N3CC(C)CC(C)C3)ccc2n1C (centres unmarked)
measured result: > 5.30

compound: Cc1c(C(=O)N2CCCCC2C)oc2ccc(S(=O)(=O)N3CCCCCC3)cc12 (centres unmarked)
measured result: 4.70 to 5.30

GET /value?item= Cc1c(C(=O)NCCCc2ccccc2)[nH]c2ccc(S(=O)(=O)N3CC(C)CC(C)C3)cc12 (centres unmarked) &field=pIC50 returns > 5.30

Entry CC1CC(C)CN(S(=O)(=O)c2ccc3[nH]c(C(=O)NCC4CCCO4)cc3c2)C1 (centres unmarked) ; pIC50 = > 5.30

The value of pIC50 measured for the compound CCN(CC)C(=O)c1cc2cc(S(=O)(=O)N3CCC(C)CC3)ccc2[nH]1 turned out to be > 5.30

###

Reported pIC50 values for a set of compounds
Target: CaV2.2 (Homo sapiens)
Construct: expressed in transfected cells; host or cells: HEK293
Experiment: VIPR optical membrane potential assay with electrical stimulation
Type: cell-based
Settings: Table 3, biological assay data; read-out: IC50
pIC50: −log10 of the molar value.

compound: CCN(CC)C(=O)c1cc2cc(S(=O)(=O)N3CC(C)CC(C)C3)ccc2n1CCCN1CCN(C)CC1 (centres unmarked) [compound 374]
pIC50: > 5.30
--
compound: CCOC(=O)C1CCN(C(=O)c2oc3ccc(S(=O)(=O)N4CCCCCC4)cc3c2C)CC1 [compound 19]
pIC50: > 5.30
--
compound: Cc1c(C(=O)NCC2COc3ccccc3O2)oc2ccc(S(=O)(=O)N(C)C3CCCCC3)cc12 (centres unmarked) [compound 200]
pIC50: 4.70 to 5.30
--
compound: Cc1c(C(=O)NC2CC2)oc2ccc(S(=O)(=O)NCc3ccccc3)cc12 [compound 237]
pIC50: > 4.70

Entry CC1CC(C)CN(C(=O)c2cc3cc(S(=O)(=O)N4CCCCCC4)ccc3[nH]2)C1 (centres unmarked) [compound 17] : pIC50 on CaV2.2 (Homo sapiens) = 4.70 to 5.30

Observed pIC50 on CaV2.2 (Homo sapiens), entry Cc1c(C(=O)N2CCCCCC2)oc2ccc(S(=O)(=O)N3CC(C)CC(C)C3)cc12 (centres unmarked) [compound 330] , equals > 5.30

// assay CaV2.2 (Homo sapiens), entry CCCCN(C)C(=O)c1[nH]c2ccc(S(=O)(=O)N3CCC(C)CC3)cc2c1C [compound 117] , pIC50 value = > 5.30

Entry CC1CCN(C(=O)c2cc3cc(S(=O)(=O)N4CCC(C)CC4)ccc3[nH]2)CC1 [compound 147] : pIC50 on CaV2.2 (Homo sapiens) = > 5.30

###

Molecular target: CaV2.2 (Homo sapiens, UniProt Q00975)
Construct: expressed in transfected cells; host or cells: HEK293
Assay: VIPR optical membrane potential assay with electrical stimulation
Assay type: cell-based
Settings: Table 3, biological assay data; read-out: IC50
Consider the following molecules and their measured IC50 readings.

Reference set, count: 5
molecule: CC1CCN(S(=O)(=O)c2ccc3[nH]c(C(=O)N4CCCC(C)C4)cc3c2)CC1 (centres unmarked) [compound 101]
IC50: < 5 µM
--
molecule: Cc1c(C(=O)N2CC(C)CC(C)C2)oc2ccc(S(=O)(=O)N3CCC(C)CC3)cc12 (centres unmarked) [compound 33]
IC50: 5 to 20 µM
--
molecule: CC1CC(C)CN(S(=O)(=O)c2ccc3oc(C(=O)NC(C)C)cc3c2)C1 (centres unmarked) [compound 271]
IC50: < 5 µM
--
molecule: CCN(CC)S(=O)(=O)c1ccc2oc(C(=O)NC(C)C)c(C)c2c1 [compound 399]
IC50: < 20 µM
--
molecule: CCOC(=O)N1CCN(C(=O)c2[nH]c3ccc(S(=O)(=O)N4CC(C)CC(C)C4)cc3c2C)CC1 (centres unmarked) [compound 439]
IC50: < 5 µM

Input CCN(CC)C(=O)c1oc2ccc(S(=O)(=O)N3CCC(C)CC3)cc2c1C [compound 15] . Output IC50: 5 to 20 µM

Record CCNC(=O)c1oc2ccc(S(=O)(=O)N3CCCC(C)C3)cc2c1C (centres unmarked) [compound 310] . Reported IC50: 5 to 20 µM

The molecule listed as O=C(c1cc2cc(S(=O)(=O)N3CCCCCC3)ccc2o1)N1CCCC1 [compound 222] shows IC50 equal to 5 to 20 µM
